- TARGET: T1, human LAP-TGFB1 Fc fusion (human)
- T1 construct: also called human LAP-TGFβ1-Fc; human LAP-TGFβ-Fc isoform 1
- T1 sequence (chain, as listed by the source limits assumed): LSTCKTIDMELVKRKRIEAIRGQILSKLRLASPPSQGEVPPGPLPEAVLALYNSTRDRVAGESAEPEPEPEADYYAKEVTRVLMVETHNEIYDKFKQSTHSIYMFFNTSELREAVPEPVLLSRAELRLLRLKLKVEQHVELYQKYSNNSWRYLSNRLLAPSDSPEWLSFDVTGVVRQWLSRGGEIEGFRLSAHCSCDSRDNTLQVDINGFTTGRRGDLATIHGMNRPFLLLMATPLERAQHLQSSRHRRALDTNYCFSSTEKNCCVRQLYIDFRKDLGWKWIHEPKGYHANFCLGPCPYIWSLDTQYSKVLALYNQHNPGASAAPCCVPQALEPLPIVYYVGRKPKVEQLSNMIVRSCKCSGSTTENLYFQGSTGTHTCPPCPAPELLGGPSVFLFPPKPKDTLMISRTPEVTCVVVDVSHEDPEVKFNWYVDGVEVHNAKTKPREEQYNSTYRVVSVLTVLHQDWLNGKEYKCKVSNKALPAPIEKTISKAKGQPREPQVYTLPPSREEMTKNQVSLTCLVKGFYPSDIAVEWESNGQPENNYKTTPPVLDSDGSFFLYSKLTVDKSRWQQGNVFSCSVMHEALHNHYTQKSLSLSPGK
- ASSAY TEXT: SPR, antigen-Fc captured, Fab analyte
- Protocol: This Example describes the isoform specificity of the yeast display mutants to bind to human LAP-TGFβ isoforms 1, 2, and 3 using surface plasmon resonance. […] Binding rate constants were determined by fitting the data with a 1:1 binding model (GE Healthcare Biacore T200 Evaluation software 3.0).
OBSERVABLE: Kd (nM)

>>> result_number("71BJN (Fab, V domains shown, also called VH W33D S55T G57D Y104Q / VL T30Y R53G (71BJN)) VH: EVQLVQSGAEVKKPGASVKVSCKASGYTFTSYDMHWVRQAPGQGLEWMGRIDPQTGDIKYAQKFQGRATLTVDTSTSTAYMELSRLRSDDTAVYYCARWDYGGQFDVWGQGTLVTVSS VL: DIQMTQSPSSLSASVGDRVTITCRASQDIYNYLNWYQQKPGKAVKLLIYYTSGLHSGVPSRFSGSGSGTDYTLTISSLQPEDFATYFCQQGDTLPWTFGQGTKLEIKR")
0.0251
>>> result_number("59BJN (Fab, V domains shown, also called VH W33Q M34V / VL T30Y (59BJN)) VH: EVQLVQSGAEVKKPGASVKVSCKASGYTFTSYQVHWVRQAPGQGLEWMGRIDPQSGGIKYAQKFQGRATLTVDTSTSTAYMELSRLRSDDTAVYYCARWDYGGYFDVWGQGTLVTVSS VL: DIQMTQSPSSLSASVGDRVTITCRASQDIYNYLNWYQQKPGKAVKLLIYYTSRLHSGVPSRFSGSGSGTDYTLTISSLQPEDFATYFCQQGDTLPWTFGQGTKLEIKR")
11.7
>>> result_number("66BJN (Fab, V domains shown, also called VH W33D S55T Y101H / VL T30Y L94Q (66BJN)) VH: EVQLVQSGAEVKKPGASVKVSCKASGYTFTSYDMHWVRQAPGQGLEWMGRIDPQTGGIKYAQKFQGRATLTVDTSTSTAYMELSRLRSDDTAVYYCARWDHGGYFDVWGQGTLVTVSS VL: DIQMTQSPSSLSASVGDRVTITCRASQDIYNYLNWYQQKPGKAVKLLIYYTSRLHSGVPSRFSGSGSGTDYTLTISSLQPEDFATYFCQQGDTQPWTFGQGTKLEIKR")
6.21
